Data provenance: ChEMBL document CHEMBL1201862

# Tested on: NCI-H460
# assay.name: NCI tumour cell line growth inhibition, 48 h
Active and inactive are the calls of the source. Rule as the data show it: active = GI50 up to about 1.1 µM and inactive = higher. Where a SMILES comes first, the peptide text is derived from it. [ ]: non-standard residue; d: D form. The star is where a group is joined. Phe(2-OMe) = COc1ccccc1C[CH](N)C(=O)O; Cbz = O=C(OCc1ccccc1)*; OBn = c1ccc(CO*)cc1
Field 'call' accepts active, inactive

Query block: Identify the outcome logged in this assay for the compound shown: CC(=O)OCC1OC(n2c(-c3ccc(C)cc3)cc(-c3ccco3)c(C#N)c2=O)C(OC(C)=O)C(OC(C)=O)C1OC(C)=O (stereo unspecified)
Result block: inactive

Query block: Then this compound: Cc1c(C)c(C)c(-n2c(=O)n(C)c(=O)n2C(C)(C)C)c(C)c1C
Result block: inactive

Query block: Then this compound: COC(=O)C(Cc1ccccc1OC)NC(=O)C(CC(=O)OCc1ccccc1)NC(=O)OCc1ccccc1 (stereo unspecified) (Cbz-Asp(OBn)-[Phe(2-OMe)]-OMe; configuration not given here)
Result block: inactive

Query block: Then this compound: COC(=O)/C=C(\C(=O)OC)c1c2c3c(cc(OC)c(OC)c3c3ccccc13)CCN2C
Result block: inactive

Query block: Then this compound: COc1ccc2nccc(NCCCN3CCN(CCCNc4ccnc5ccc(OC)cc45)CC3)c2c1
Result block: active

Query block: Then this compound: O=C1CCC(=O)C1=NNc1cc(Cl)cc(Cl)c1
Result block: inactive
